Target: human Class I PI3 kinase γ (Homo sapiens (Human))
Sequence (P48736 whole entry, canonical isoform): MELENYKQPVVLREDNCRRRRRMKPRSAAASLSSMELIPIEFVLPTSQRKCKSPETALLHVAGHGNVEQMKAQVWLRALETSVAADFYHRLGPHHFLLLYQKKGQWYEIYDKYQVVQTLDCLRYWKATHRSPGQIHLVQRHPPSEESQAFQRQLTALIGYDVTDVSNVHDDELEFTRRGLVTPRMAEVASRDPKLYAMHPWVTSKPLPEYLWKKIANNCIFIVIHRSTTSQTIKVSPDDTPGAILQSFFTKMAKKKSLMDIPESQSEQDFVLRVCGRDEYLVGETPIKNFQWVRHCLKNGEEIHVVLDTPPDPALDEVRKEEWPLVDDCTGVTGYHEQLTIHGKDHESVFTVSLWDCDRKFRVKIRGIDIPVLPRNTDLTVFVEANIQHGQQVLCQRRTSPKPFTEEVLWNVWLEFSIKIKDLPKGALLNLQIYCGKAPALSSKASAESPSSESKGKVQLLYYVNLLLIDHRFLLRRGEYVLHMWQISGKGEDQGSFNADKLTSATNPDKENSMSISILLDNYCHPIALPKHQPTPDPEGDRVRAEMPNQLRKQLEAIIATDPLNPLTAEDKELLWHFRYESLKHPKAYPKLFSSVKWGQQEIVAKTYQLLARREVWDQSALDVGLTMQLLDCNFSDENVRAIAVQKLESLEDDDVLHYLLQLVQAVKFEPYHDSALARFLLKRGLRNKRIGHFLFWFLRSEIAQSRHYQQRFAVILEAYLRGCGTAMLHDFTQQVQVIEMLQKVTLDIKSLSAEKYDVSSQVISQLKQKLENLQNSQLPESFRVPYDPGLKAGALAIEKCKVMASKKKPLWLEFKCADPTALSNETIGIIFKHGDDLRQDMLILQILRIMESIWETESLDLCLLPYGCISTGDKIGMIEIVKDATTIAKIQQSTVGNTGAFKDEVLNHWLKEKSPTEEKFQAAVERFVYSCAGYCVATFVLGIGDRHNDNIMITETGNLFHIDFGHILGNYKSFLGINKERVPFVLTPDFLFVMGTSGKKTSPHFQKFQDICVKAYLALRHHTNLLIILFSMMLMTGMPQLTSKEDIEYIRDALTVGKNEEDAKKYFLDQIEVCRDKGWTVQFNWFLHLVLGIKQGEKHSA
Test: PI3-Kinase Promega ADP-Glo Max assay, γ isoform
Conditions: 40 nM kinase, 3 mM ATP, 500 uM diC8-PtdInsP; read-out: Promega γ PI3K IC50
measurement.label: IC50

Some entries whose results are on file:
C[C@H](NC(=O)c1c(N)nn2cccnc12)c1nc2cccc(Cl)c2c(=O)n1-c1ccc(F)c(F)c1 ... 500 to 1000 nM
C[C@H](NC(=O)c1c(N)nn2cccnc12)c1cc2cccc(Cl)c2c(=O)n1-c1cccc(O)c1 ... 10 to 100 nM
C[C@H](NC(=O)c1nc(C2CC2)cnc1N)c1cc2cccc(Cl)c2c(=O)n1-c1ccccc1 ... 1000 to 10000 nM
C[C@H](NC(=O)c1c(N)nn2cccnc12)c1nc2c(Cl)cccc2c(=O)n1-c1ccccc1 ... 1000 to 10000 nM
COc1ccccc1-n1c([C@H](C)NC(=O)c2c(N)nn3cccnc23)cc2cccc(Cl)c2c1=O ... 100 to 500 nM

Provide IC50 values for the following items, in order.
1. CNS(=O)(=O)CCn1c([C@H](C)NC(=O)c2c(N)nn3cccnc23)cc2cccc(Cl)c2c1=O
2. C[C@H](NC(=O)c1c(N)nn2cccnc12)c1cc2cccc(OCc3cnn(C)c3)c2c(=O)n1-c1ccccc1
3. CC(C)C(=O)Cc1cccc2cc([C@H](C)NC(=O)c3c(N)nn4cccnc34)n(-c3ccccc3)c(=O)c12
4. C[C@H](NC(=O)c1c(N)nn2cccnc12)c1cc2cccc(Cl)c2c(=O)n1-c1ccc(O)cc1

Result:
10 to 100 nM
500 to 1000 nM
1000 to 10000 nM
10 to 100 nM

====

Biological target: p110 δ (RAJI cells) (Homo sapiens (Human), UniProt O00329)
Sequence (O00329 whole entry): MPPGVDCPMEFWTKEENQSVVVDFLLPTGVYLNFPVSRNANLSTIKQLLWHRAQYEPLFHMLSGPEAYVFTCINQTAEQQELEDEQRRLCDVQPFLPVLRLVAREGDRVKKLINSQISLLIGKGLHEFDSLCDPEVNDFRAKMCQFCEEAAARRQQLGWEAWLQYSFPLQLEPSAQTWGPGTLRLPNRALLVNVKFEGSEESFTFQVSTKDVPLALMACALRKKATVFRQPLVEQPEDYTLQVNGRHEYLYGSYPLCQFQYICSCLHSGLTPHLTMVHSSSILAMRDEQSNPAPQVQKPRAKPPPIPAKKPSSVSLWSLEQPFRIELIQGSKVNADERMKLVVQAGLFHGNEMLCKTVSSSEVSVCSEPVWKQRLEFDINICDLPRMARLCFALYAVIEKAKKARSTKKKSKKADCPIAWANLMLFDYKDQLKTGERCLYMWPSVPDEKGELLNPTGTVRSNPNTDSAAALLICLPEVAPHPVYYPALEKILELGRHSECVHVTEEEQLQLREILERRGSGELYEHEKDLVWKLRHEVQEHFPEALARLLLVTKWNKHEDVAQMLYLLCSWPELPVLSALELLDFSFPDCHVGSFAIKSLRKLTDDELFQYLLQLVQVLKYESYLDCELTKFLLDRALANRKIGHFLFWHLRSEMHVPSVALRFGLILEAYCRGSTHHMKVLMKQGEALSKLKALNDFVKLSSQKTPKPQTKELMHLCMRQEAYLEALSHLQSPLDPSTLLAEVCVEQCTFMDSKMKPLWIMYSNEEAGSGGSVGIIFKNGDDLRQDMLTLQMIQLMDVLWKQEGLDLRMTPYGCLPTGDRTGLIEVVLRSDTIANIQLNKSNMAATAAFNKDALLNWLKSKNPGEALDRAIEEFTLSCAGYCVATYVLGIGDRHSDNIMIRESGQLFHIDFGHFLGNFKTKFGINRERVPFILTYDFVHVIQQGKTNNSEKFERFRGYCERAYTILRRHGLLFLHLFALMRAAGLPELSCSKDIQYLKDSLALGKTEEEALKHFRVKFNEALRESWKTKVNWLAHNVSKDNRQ
Sequence (P27986 whole entry partner): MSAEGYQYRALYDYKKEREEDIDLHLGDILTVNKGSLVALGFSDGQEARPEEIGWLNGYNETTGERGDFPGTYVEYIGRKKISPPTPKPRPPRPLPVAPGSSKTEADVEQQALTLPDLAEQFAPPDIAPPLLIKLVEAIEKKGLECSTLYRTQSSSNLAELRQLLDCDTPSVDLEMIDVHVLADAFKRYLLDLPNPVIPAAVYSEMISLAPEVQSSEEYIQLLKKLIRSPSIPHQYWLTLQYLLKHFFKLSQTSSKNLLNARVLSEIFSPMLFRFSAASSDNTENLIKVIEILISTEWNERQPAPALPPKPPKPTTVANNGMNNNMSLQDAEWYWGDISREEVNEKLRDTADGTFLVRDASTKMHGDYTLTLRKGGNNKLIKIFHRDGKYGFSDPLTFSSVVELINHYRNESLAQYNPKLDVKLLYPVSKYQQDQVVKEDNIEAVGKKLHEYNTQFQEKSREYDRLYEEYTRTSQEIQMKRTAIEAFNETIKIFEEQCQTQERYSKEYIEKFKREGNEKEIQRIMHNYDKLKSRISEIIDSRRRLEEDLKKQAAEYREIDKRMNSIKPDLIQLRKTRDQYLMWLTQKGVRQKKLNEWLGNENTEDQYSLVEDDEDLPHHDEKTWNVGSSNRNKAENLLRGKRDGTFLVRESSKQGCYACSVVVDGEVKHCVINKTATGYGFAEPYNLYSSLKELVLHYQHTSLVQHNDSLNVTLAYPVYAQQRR
Experiment: PI3K-δ selective cellular assay: phospho-AKT in anti-human IgM stimulated RAJI cells
Settings: serum-starved RAJI cells stimulated with anti-human IgM
pIC50: −log10 of the molar value.
Assign pIC50 to each entry below.

Some entries whose results are on file:
C[C@H](NC(=O)c1c(N)nn2cccnc12)c1cc2cccc(Cl)c2c(=O)n1C1CC(NS(C)(=O)=O)C1 (stereo partly shown) [Compound 72] ... 7.00 to 8.00
C[C@H](NC(=O)c1c(N)nn2cccnc12)c1cc2cccc(CCc3cnn(C)c3)c2c(=O)n1-c1ccccc1 [Compound 66] ... 7.00 to 8.00

Provide pIC50 values for the following items, in order.
1. C[C@H](NC(=O)c1c(N)nn2cccnc12)c1cc2cccc(Cl)c2c(=O)n1CCc1ncn[nH]1 [Compound 20]
2. Cc1ccnc2c(C(=O)N[C@@H](C)c3cc4cccc(Cl)c4c(=O)n3-c3ccccc3)c(N)nn12 [Compound 82]
3. CNS(=O)(=O)CCn1c([C@H](C)NC(=O)c2c(N)nn3cccnc23)cc2cccc(Cl)c2c1=O [Compound 54]
4. C[C@H](NC(=O)c1c(N)nn2cccnc12)c1cc2cccc(-c3cnn(CC(F)(F)F)c3)c2c(=O)n1-c1ccccc1 [Compound 50]
5. Cc1cccc2c(=O)n(-c3ccccc3)c([C@H](C)NC(=O)c3c(N)nn4cccnc34)nc12 [Compound 92]
6. C[C@H](NC(=O)c1c(N)nn2cccnc12)c1cc2cccc(Cl)c2c(=O)n1CCCS(C)(=O)=O [Compound 57]
7. C[C@H](NC(=O)c1c(N)ncn2ccnc12)c1cc2cccc(Cl)c2c(=O)n1-c1ccccc1 [Compound 43]
8. CCS(=O)(=O)NCCn1c([C@H](C)NC(=O)c2c(N)nn3cccnc23)cc2cccc(Cl)c2c1=O [Compound 61]

Result:
1. 7.00 to 8.00
2. 7.00 to 8.00
3. 7.00 to 8.00
4. 6.30 to 7.00
5. 6.30 to 7.00
6. 6.30 to 7.00
7. 8.00 to 9.00
8. 7.00 to 8.00
